# Lookup of reported pIC50 keyed by entry
Biological target: ATase (Rattus norvegicus, UniProt P24528)
Construct: endogenous in cells; host or cells: Yoshida
Sequence (P24528 whole entry): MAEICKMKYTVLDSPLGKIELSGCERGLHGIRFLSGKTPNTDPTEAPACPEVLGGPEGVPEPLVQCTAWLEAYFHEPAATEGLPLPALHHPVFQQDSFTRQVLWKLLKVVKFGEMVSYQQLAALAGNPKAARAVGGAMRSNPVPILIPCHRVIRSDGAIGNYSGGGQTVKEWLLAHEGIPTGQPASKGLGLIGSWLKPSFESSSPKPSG
Assay: Inactivation of ATase activity in Yoshida cells
Assay type: cell-based
pIC50: −log10 of the molar value.
ASSAY_METRIC: pIC50

compound="Nc1nc(OCc2ccccc2)c2nc[nH]c2n1 [O^6-benzylguanine, reference compound]" observed=6.85
compound=Nc1nc(OCc2cccs2)c2nc[nH]c2n1 observed=7.70

* * *

Molecular target: ATase (Homo sapiens, UniProt P16455)
Sequence (P16455 whole entry): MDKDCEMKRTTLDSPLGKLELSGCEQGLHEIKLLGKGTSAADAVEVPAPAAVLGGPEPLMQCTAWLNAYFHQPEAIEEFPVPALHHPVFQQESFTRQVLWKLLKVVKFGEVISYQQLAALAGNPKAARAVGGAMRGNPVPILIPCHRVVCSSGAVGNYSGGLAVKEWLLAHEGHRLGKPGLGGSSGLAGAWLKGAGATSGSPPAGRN
Assay: Inactivation of ATase activity in WiDr cells
Format: cell-based
Parameters: endogenous in cells; host or cells: Raji
Details: Human WiDr cells, 2 hours at 37°C; read-out: Inactivation of ATase in Mammalian Cells I50(µM) Human WiDr
ASSAY_METRIC: IC50 (µM)

compound="Nc1nc(OCc2ccco2)c2nc[nH]c2n1 [B.4203, O^6-furfurylguanine]" assay_metric=IC50 observed=0.08

* * *

Test: Inactivator toxicity in bone marrow cells (GM-CFC colonies, inactivator alone)
Format: cell-based, human
Details: human, bone marrow gm-cfc, inactivator 10uM, Patient C; read-out: No. of colonies as % of control (ie no inactivator)
Excerpt: For the granulocyte/macrophage colony-forming cell (GM-CFC) assay primary human bone marrow samples were obtained from patients undergoing cardiothoracic surgery. […] The colonies represented precursor cells of the granulocyte/macrophage lineage (huGM-CFC). […]
# Lookup of reported viability at 216 h, 10 µM keyed by entry
ASSAY_METRIC: viability at 216 h, 10 µM (%)

compound=Nc1nc(OCc2cccs2)c2nc[nH]c2n1 assay_metric="viability at 216 h, 10 µM" observed=97
compound="Nc1nc(OCc2ccccc2)c2nc[nH]c2n1 [O^6-benzylguanine, reference compound]" assay_metric="viability at 216 h, 10 µM" observed=88

* * *

Molecular target: UniProt:P16455
Assay: Inactivation of ATase activity in XP cells
Assay type: cell-based
Design: endogenous in cells; host or cells: Raji
ASSAY_METRIC: IC50 (nM)

input_smiles=Nc1nc(OCc2cccs2)c2nc[nH]c2n1 experimental_system=UniProt:P16455 display_unit=nM observed=30

* * *

# Lookup of reported half-life at 100 µM keyed by entry
Test: Stability of inactivators at 37°C (spectrophotometric half life)
Assay type: physicochemical
Conditions: 0.1mM in PBS (pH 7-7.2), read-out: T1/2(h) in PBS (converted)
ASSAY_METRIC: half-life at 100 µM (h)

compound="Nc1nc(OCc2cnc3c(c2)OCO3)c2nc[nH]c2n1 [B.4271, O^6-(5-azapiperonyl)guanine]" assay_metric="half-life at 100 µM" prefix_operator=> observed=16
compound="Nc1nc(OCc2ccco2)c2nc[nH]c2n1 [B.4203, O^6-furfurylguanine]" assay_metric="half-life at 100 µM" prefix_operator== observed=0.17
compound="Nc1nc(OCc2ccc3c(c2)OCO3)c2nc[nH]c2n1 [B.4212, O^6-piperonylguanine]" assay_metric="half-life at 100 µM" prefix_operator== observed=0.72
compound="Nc1nc(OCc2cc3ccccc3s2)c2nc[nH]c2n1 [B.4226, O^6-(2-benzo[b]thienylmethyl)guanine]" assay_metric="half-life at 100 µM" prefix_operator== observed=6.7

* * *

# Lookup of reported half-life at 100 µM keyed by entry
Experiment: Stability of inactivators at 37°C (spectrophotometric half life)
Format: physicochemical
Conditions: 0.1mM in PBS (pH 7-7.2), read-out: T1/2(h) in PBS (converted)
ASSAY_METRIC: half-life at 100 µM

compound="Nc1nc(OCc2ccccc2)c2nc[nH]c2n1 [O^6-benzylguanine, reference compound]" observed="> 16 h"
compound=Nc1nc(OCc2cc3ccccc3o2)c2nc[nH]c2n1 observed="> 16 h"
compound=Nc1nc(OCc2ccc3ccccc3c2)c2nc[nH]c2n1 observed="> 16 h"
compound=Nc1nc(OCc2ccc(C(=O)O)o2)c2nc[nH]c2n1 observed="> 16 h"
compound=Nc1nc(OCc2ccsc2)c2nc[nH]c2n1 observed="> 16 h"
compound=COC(=O)c1ccc(COc2nc(N)nc3[nH]cnc23)o1 observed="> 16 h"
compound=Cc1ccsc1COc1nc(N)nc2[nH]cnc12 observed="> 16 h"
compound=Cc1ccc(COc2nc(N)nc3[nH]cnc23)s1 observed="> 16 h"

* * *

# Lookup of reported pIC50 keyed by entry
Target: ATase (Homo sapiens)
Assay: Inactivation of ATase activity in Raji cells
Format: cell-based
Parameters: endogenous in cells; host or cells: Raji
Settings: Raji cells, 2 hours at 37°C; read-out: Raji I50
pIC50: −log10 of the molar value.
ASSAY_METRIC: pIC50

compound=Nc1nc(OCc2ccc(Br)s2)c2nc[nH]c2n1 prefix_operator== observed=8.22
compound="CC(Oc1nc(N)nc2[nH]cnc12)c1ccsc1 (racemic) [B.4219, DL-O^6-[1-(3-thienyl)ethyl]guanine]" prefix_operator=< observed=6.00
compound=COC(=O)c1ccc(COc2nc(N)nc3[nH]cnc23)o1 prefix_operator== observed=6.60
compound=Cc1ccc(COc2nc(N)nc3[nH]cnc23)o1 prefix_operator=< observed=6.00
compound=Nc1nc(OCc2ccc3ccccc3c2)c2nc[nH]c2n1 prefix_operator== observed=7.52
compound="Nc1nc(OCc2cc3ccccc3s2)c2nc[nH]c2n1 [B.4226, O^6-(2-benzo[b]thienylmethyl)guanine]" prefix_operator== observed=7.22
compound=Cc1ccc(COc2nc(N)nc3[nH]cnc23)s1 prefix_operator=< observed=6.00
compound=Nc1nc(OCc2ccc3c(c2)OCO3)c2nc[nH]c2n1 prefix_operator== observed=7.30
compound=Cc1ccsc1COc1nc(N)nc2[nH]cnc12 prefix_operator== observed=6.33
compound=Nc1nc(OCc2ccoc2)c2nc[nH]c2n1 prefix_operator== observed=6.82
compound=Nc1nc(OCc2ccsc2)c2nc[nH]c2n1 prefix_operator== observed=7.22
compound=Nc1nc(OCc2ccc(C(=O)O)o2)c2nc[nH]c2n1 prefix_operator=< observed=6.00

* * *

Biological target: ATase (Homo sapiens, UniProt P16455)
Test: Inactivation of ATase activity in Raji cells
Assay type: cell-based
Set-up: endogenous in cells; host or cells: Raji
Conditions: Human Raji cells, 2 hours at 37°C (Table 5); read-out: Inactivation of ATase in Mammalian Cells I50(µM) Human Raji
ASSAY_METRIC: IC50 (µM)

input_smiles=Nc1nc(OCc2ccco2)c2nc[nH]c2n1 experimental_system="ATase (Homo sapiens, UniProt P16455)" observed=0.04

* * *

System: A375M cells
Test: Sensitization of A375M cells to BCNU (MTT assay)
Type: cell-based, human
Conditions: inactivator 0.5uM 2 hours before
ASSAY_METRIC: A375M sensitization (D50.^C/D50.^I) 0.5uM

compound=Nc1nc(OCc2cc3ccccc3o2)c2nc[nH]c2n1 experimental_system="A375M cells" observed=6.3
compound=Nc1nc(OCc2ccco2)c2nc[nH]c2n1 experimental_system="A375M cells" observed=2.0
compound="Nc1nc(OCc2ccccc2)c2nc[nH]c2n1 [O^6-benzylguanine, reference compound]" experimental_system="A375M cells" observed=3.1
compound="C=CCOc1nc(N)nc2[nH]cnc12 [O^6-allylguanine, reference compound]" experimental_system="A375M cells" observed=1.3
compound=Nc1nc(OCc2cccs2)c2nc[nH]c2n1 experimental_system="A375M cells" observed=2.8
compound=Nc1nc(OCc2ccc3c(c2)OCO3)c2nc[nH]c2n1 experimental_system="A375M cells" observed=2.3
compound="Nc1nc(OCc2cc3ccccc3s2)c2nc[nH]c2n1 [B.4226, O^6-(2-benzo[b]thienylmethyl)guanine]" experimental_system="A375M cells" observed=3.8
compound=Nc1nc(OCc2ccsc2)c2nc[nH]c2n1 experimental_system="A375M cells" observed=3.3

* * *

# Lookup of reported Raji sensitization (D90.^C/D90.^I) 1.0µM keyed by entry
System: Raji cells
Experiment: Sensitization of Raji cells to BCNU (XTT assay)
Format: cell-based, human
Details: BCNU, 2 hour pretreatment, inactivator 1.0µM
ASSAY_METRIC: Raji sensitization (D90.^C/D90.^I) 1.0µM

compound="Nc1nc(OCc2ccc(C(=O)O)o2)c2nc[nH]c2n1 [B.4234, O^6-(5-carboxyfurfuryl)guanine]" assay_metric="Raji sensitization (D90.^C/D90.^I) 1.0µM" observed=1.0
compound="COC(=O)c1ccc(COc2nc(N)nc3[nH]cnc23)o1 [B.4229, O^6-(5-methoxycarbonylfurfuryl)guanine]" assay_metric="Raji sensitization (D90.^C/D90.^I) 1.0µM" observed=2.5
compound="Cc1ccc(COc2nc(N)nc3[nH]cnc23)s1 [B.4220, O^6-(5-methylthenyl)guanine]" assay_metric="Raji sensitization (D90.^C/D90.^I) 1.0µM" observed=1.0
compound="Nc1nc(OCc2ccc3c(c2)OCO3)c2nc[nH]c2n1 [B.4212, O^6-piperonylguanine]" assay_metric="Raji sensitization (D90.^C/D90.^I) 1.0µM" observed=10.7
compound="Nc1nc(OCc2ccoc2)c2nc[nH]c2n1 [B.4209, O^6-(3-furylmethyl)guanine]" assay_metric="Raji sensitization (D90.^C/D90.^I) 1.0µM" observed=2.8
compound="Nc1nc(OCc2cccs2)c2nc[nH]c2n1 [B.4205, O^6-thenylguanine]" assay_metric="Raji sensitization (D90.^C/D90.^I) 1.0µM" observed=8.0
compound="CC(Oc1nc(N)nc2[nH]cnc12)c1ccsc1 (racemic) [B.4219, DL-O^6-[1-(3-thienyl)ethyl]guanine]" assay_metric="Raji sensitization (D90.^C/D90.^I) 1.0µM" observed=1.0
compound="Nc1nc(OCc2ccsc2)c2nc[nH]c2n1 [B.4206, O^6-(3-thienylmethyl)guanine]" assay_metric="Raji sensitization (D90.^C/D90.^I) 1.0µM" observed=6.0
compound="Cc1ccsc1COc1nc(N)nc2[nH]cnc12 [B.4222, O^6-(3-methylthenyl)guanine]" assay_metric="Raji sensitization (D90.^C/D90.^I) 1.0µM" observed=2.1
